src = PubChem BioAssay (NCI)

system: HCT-116 colon; assay: NCI-60 one-dose screen, 48 h; conditions: 10 µM unless noted
About 83,000 compounds went through this panel and 20% of them were active in at least one assay; those are over-represented in the sample as a whole. The source made the active and inactive calls. How the source made its calls: active means growth percent below 10; inactive means the rest.
# output must be one of active, inactive

Sample answers from the record:
# CHEM_SMILES, DISCRETE_LABEL
rows = [
    ("CCCCCOc1ccc(/C=N/Nc2cc(C)nc3ccc(Cl)cc23)cc1", "active"),
    ("O=C1c2ccc3c4c(ccc(c24)C(=O)N1CCCNCc1ccccc1)C(=O)N(CCCNCc1ccccc1)C3=O", "active"),
    ("COc1ccc(C(=O)/C=C/c2cc3ccccc3n3nnnc23)cc1", "inactive"),
    ("O=C(NO)c1ccc(-n2nc(-c3ccccc3)c3ccccc32)cc1", "active"),
]

Tell me the recorded outcome of this test for Cn1ccnc1C(=O)/C=C/c1ccc(CC(=O)NC2CCCCC2)cc1 .
inactive

====

Test system: SN12C renal
Assay: NCI-60 one-dose screen, 48 h
Conditions: 10 µM unless noted
Protocol: Growth inhibition of the SN12C human tumor cell line is measured as a screen for anti-cancer activity. Cells are grown in 96 well plates and exposed to the test compound for 48 hours. Compounds are tested at a single concentration, which is 10^-5 M for most compounds. The reported endpoint is percent growth (GI% or GIPRCNT), where numbers from 0 - 100% represent growth inhibition, and numbers from -100% - 0 represent cell death. For example, a value of 40 represents 60% growth inhibition. […]
Compounds without any hit were thinned out: in the full panel of roughly 83,000, 20% have a hit. The source made the active and inactive calls. Rule for the calls: active = growth percent below 10; inactive = the rest.
Outcome (select one): active, inactive

Recorded results for 4 molecules are shown here.
# MOLECULE, DISCRETE_LABEL
records = [
    ("COc1ccc(-c2nc3sccn3c2/C=C/C(=O)c2ccc3c(c2)OCO3)cc1", "inactive"),
    ("O=C1c2ccc3c4c(ccc(c24)C(=O)N1CCCNCc1ccccc1Cl)C(=O)N(CCCNCc1ccccc1Cl)C3=O", "active"),
    ("CC(Oc1ccc(C(=O)O)cc1C(F)(F)F)c1ccc(Oc2ccccc2)cn1 (stereo not given)", "inactive"),
    ("N#Cc1c(-c2ccccc2)nc2c(c(-c3ccccc3)nn2-c2ccccc2)c1-c1ccc(O)cc1", "inactive"),
]

Continue with the molecule presented below.
Please state the recorded outcome for this molecule: Cn1c2ccccc2c2c3c(c4c5ccccc5n(C)c4c21)C(=O)OC3
inactive

====

test system: MDA-MB-231 breast; test: NCI-60 one-dose screen, 48 h; settings: 10 µM unless noted
This is part of a sample that, as a whole, favours compounds with a hit. Of some 83,000 tested, about 20% had one in any assay. Active and inactive are the calls of the source. The calls were made as follows: active = growth percent below 10; inactive = the rest.
Could you please pick one outcome from this set? yes (1) (active), no (0) (inactive)

Answered examples (8):
# COMPOUND, DISCRETE_LABEL
measured = [
    ("O=C(NCCc1ccccc1)Nc1ccc2cc3ccc(NC(=O)NCCc4ccccc4)cc3nc2c1", "yes (1)"),
    ("COc1ccc(C(=O)c2cc(C)c(OC)c(C)c2)c(OC)c1NC(C)=O", "no (0)"),
    ("CCNC(=O)Oc1ccc(/C(=C(\\C)c2ccccc2)c2ccc(OCCCN(C)C)cc2)cc1", "no (0)"),
    ("Cc1ccccc1NS(=O)(=O)c1cccc(C(=O)Nc2ccc(Br)cc2)c1", "no (0)"),
    ("Cn1ccnc1C(=O)/C=C/c1ccc(CC(=O)NC2CCCCC2)cc1", "no (0)"),
    ("NS(=O)(=O)c1ccc(CCN2C(=O)C=CC2=O)cc1", "no (0)"),
    ("COc1ccc2c(c1)C(=O)CC(c1ccccc1OC)O2 (stereo not given)", "no (0)"),
    ("Cc1ccc(C(=O)/C(=C/c2ccc([N+](=O)[O-])cc2)SCc2ccc(Cl)cc2)cc1", "no (0)"),
]

# fetch the recorded call for CCOc1cccc(-c2nc(N)nc(Nc3ccccc3SSc3ccccc3Nc3nc(N)nc(-c4cccc(OCC)c4)n3)n2)c1 here
no (0)

Given COc1cc2c(=O)n(CCCN(C)C)c3c4cc5c(cc4ccc3c2cc1OC)OCO5 , state the outcome it received in this test.
no (0)

So what was the verdict on COc1ccc(/C=C2\Oc3cc(OCCCCCN4CCCCC4)ccc3C2=O)cc1OC in this test?
no (0)

What call does the record list for CCOC(=O)Nc1ccc(-c2ccc3c(c2)NC(=O)/C3=C\c2ccc[nH]2)cc1 ?
no (0)

Record request — test call for C=C1C(=O)O[C@H]2[C@H]1CC/C(CNS(=O)(=O)c1cccc3ccccc13)=C\CC[C@@]1(C)O[C@@H]21
no (0)

Answer briefly: the call reported for CCc1c2c(nc3ccc(OCc4ccc(B(O)O)cc4)cc13)-c1cc3c(c(=O)n1C2)COC(=O)[C@]3(O)CC in this assay.
no (0)

Given O=S(=O)(Nc1ccc(-n2cnc3cc(-c4ccc(O)cc4)ccc32)cc1)c1ccccc1 , state the outcome it received in this test.
no (0)

Could you check what this test reported for COc1ccc(-c2cnc3c(-c4cccc5ncccc45)cnn3c2)cc1 ?
yes (1)

Assay result, entry COc1cc2c(c(OC)c1OC)-c1ccc(NNC(=S)N(Cc3cccc(C[N+](Cc4cccc(CNC56CC7CC(CC(C7)C5)C6)c4)(Cc4cccc(CNC56CC7CC(CC(C7)C5)C6)c4)Cc4cccc(CN(C(=S)NNc5ccc6c(cc5=O)[C@@H](NC(C)=O)CCc5cc(OC)c(OC)c(OC)c5-6)C56CC7CC(CC(C7)C5)C6)c4)c3)C34CC5CC(CC(C5)C3)C4)c(=O)cc1[C@@H](NC(C)=O)CC2 (stereo not given in full) — outcome?
yes (1)

====

test system: COLO 205 colon; test: NCI-60 one-dose screen, 48 h (100 = growth as untreated, 0 = no growth, -100 = all killed); conditions: 10 µM unless noted
This is part of a sample that, as a whole, favours compounds with a hit. Of some 83,000 tested, about 20% had one in any assay.
One threshold, 70%, splits the recorded growth values: lower ones are Y, equal or higher ones are N.

# CHEM_SMILES, DISCRETE_LABEL
measured = [
    ("O=C(Nc1ncc(Cc2cc(Cl)ccc2Cl)s1)c1cccs1", "Y"),
    ("CCN(CC)CC[n+]1cc2cc(OC)c(OC)cc2c2ccc3cc4c(cc3c21)OCO4", "Y"),
    ("C=C(C)[C@@H]1CC[C@]2(C(=O)N[C@H](CO)Cc3ccccc3)CC[C@]3(C)[C@H](CC[C@@H]4[C@@]5(C)CCCNC(C)(C)[C@@H]5CC[C@]43C)[C@@H]12", "Y"),
    ("O=C1Nc2cc(-c3ccc(NS(=O)(=O)c4ccccc4)cc3)ccc2/C1=C/c1ccc[nH]1", "N"),
]

growth strictly < 70% for this molecule? COc1cc(/C=C\c2cc(OC)c(OC)c(OC)c2)cc(N)c1OC
N

====

System: SW-620 colon
Assay: NCI-60 one-dose screen, 48 h (100 = growth as untreated, 0 = no growth, -100 = all killed)
Conditions: 10 µM unless noted
Procedure: Growth inhibition of the SW-620 human tumor cell line is measured as a screen for anti-cancer activity. Cells are grown in 96 well plates and exposed to the test compound for 48 hours. Compounds are tested at a single concentration, which is 10^-5 M for most compounds. The reported endpoint is percent growth (GI% or GIPRCNT), where numbers from 0 - 100% represent growth inhibition, and numbers from -100% - 0 represent cell death. For example, a value of 40 represents 60% growth inhibition. […]
The panel holds about 83,000 compounds, 20% with a hit somewhere; the sample as a whole holds those more often.
Entry class follows growth: bottom = under 20%, middle = from 20% up to 60%, top = 60% and over

# CHEM_SMILES, TARGET_OR_TEST_SYSTEM, DISCRETE_LABEL
records = [
    ("O=C(N/N=C/c1cc2ccccc2n2nnnc12)Nc1ccccc1", "SW-620 colon", "top"),
    ("C/C(=N\\Nc1cc(C)nc2ccc(Br)cc12)c1ccc([N+](=O)[O-])cc1", "SW-620 colon", "middle"),
    ("O=C1Nc2cc(-c3cccc(O)c3)ccc2/C1=C/c1ccc[nH]1", "SW-620 colon", "bottom"),
    ("CCCCCCCCCCCCCCCC[N+]1(C)CCN(SN2CC[N+](C)(CCCCCCCCCCCCCCCC)CC2)CC1", "SW-620 colon", "middle"),
    ("O=[N+]([O-])c1cc(Br)c2cccc3c2c1CC3", "SW-620 colon", "top"),
    ("Oc1ccc(C2c3ccccc3Oc3ccccc32)c2cccnc12", "SW-620 colon", "middle"),
]

For this molecule, which bin applies? O=C(Nc1ccc(NC(=O)c2cc(=O)[nH]c3ccccc23)cc1)Nc1cccc(Cl)c1
top

Which category does the recorded growth put Clc1ccc(-c2ccc(CNCC3CCNCC3)o2)c(-c2ccccc2)c1 in?
bottom

Class (by measured growth) for COC(=O)N[C@H]1CCc2c(Cl)c(OC)c(OC)c(OC)c2-c2ccc(SC)c(=O)cc21
bottom
